Measured target: human TLR9 (Homo sapiens, UniProt Q9NR96)
Sequence (Q9NR96 26-1032): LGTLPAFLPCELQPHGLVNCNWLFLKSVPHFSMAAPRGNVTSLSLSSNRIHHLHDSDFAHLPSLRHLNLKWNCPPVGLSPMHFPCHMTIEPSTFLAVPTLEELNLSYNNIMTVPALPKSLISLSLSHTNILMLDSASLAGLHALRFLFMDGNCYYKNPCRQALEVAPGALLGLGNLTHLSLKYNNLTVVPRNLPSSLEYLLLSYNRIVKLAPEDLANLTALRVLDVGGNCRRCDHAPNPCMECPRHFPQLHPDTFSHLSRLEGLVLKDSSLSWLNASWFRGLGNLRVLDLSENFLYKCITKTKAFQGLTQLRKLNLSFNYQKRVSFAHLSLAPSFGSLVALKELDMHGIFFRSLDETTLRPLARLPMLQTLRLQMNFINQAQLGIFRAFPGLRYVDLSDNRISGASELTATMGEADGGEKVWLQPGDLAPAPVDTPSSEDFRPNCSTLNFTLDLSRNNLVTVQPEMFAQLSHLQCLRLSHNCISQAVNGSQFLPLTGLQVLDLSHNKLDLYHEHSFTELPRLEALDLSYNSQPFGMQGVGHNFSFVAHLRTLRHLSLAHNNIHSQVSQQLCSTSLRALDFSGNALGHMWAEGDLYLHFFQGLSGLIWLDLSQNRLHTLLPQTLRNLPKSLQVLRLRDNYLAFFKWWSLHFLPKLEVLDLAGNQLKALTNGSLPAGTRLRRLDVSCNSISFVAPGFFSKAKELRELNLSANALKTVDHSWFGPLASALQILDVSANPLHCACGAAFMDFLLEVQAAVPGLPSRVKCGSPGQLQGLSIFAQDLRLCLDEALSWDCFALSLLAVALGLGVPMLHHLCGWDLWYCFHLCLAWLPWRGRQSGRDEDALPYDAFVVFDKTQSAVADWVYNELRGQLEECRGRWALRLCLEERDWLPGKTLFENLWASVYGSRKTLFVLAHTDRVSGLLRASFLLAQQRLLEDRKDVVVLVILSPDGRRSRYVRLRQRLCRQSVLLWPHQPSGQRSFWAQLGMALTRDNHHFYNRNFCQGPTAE
Experiment notes: TLR9 inhibition reporter assay (HEK-Blue cells, SEAP reporter, ODN2006 stimulation)
Particulars: HEK-Blue cells overexpressing human TLR9, SEAP reporter, ODN2006 5 nM
Description: TLR7/8/9 Inhibition Reporter Assays HEK-Blue™-cells (Invivogen) overexpressing human TLR7, TLR8 or TLR9 receptors were used for screening inhibitors of these receptors using an inducible SEAP (secreted embryonic alkaline phosphatase) reporter gene under the control of the IFN-β minimal promoter fused to five NF-κB and AP-1-binding sites. […]
Examples of compounds with documented IC50 follow.

// below: answered compounds
The value of IC50 measured for the compound COc1cc(-c2[nH]nc(-c3ccc(C4CCN(CC5(C)COC5)CC4)cc3)c2C(C)C)cn2ncnc12 turned out to be > 50 µM

# IC50 of Cc1cc(-c2[nH]nc(-c3nc4c(s3)CN(CC(=O)N(C)C)CC4)c2C(C)C)cn2ncnc12 = > 50 µM

New cases:
GET /value?item= COc1cc(-c2[nH]nc(-c3ccc(C4CCN(CCS(C)(=O)=O)CC4)cn3)c2C(C)C)cn2ncnc12 &field=IC50 returns > 50 µM

###

Measured target: human TLR9 (Homo sapiens, UniProt Q9NR96)
Sequence (Q9NR96 26-1032): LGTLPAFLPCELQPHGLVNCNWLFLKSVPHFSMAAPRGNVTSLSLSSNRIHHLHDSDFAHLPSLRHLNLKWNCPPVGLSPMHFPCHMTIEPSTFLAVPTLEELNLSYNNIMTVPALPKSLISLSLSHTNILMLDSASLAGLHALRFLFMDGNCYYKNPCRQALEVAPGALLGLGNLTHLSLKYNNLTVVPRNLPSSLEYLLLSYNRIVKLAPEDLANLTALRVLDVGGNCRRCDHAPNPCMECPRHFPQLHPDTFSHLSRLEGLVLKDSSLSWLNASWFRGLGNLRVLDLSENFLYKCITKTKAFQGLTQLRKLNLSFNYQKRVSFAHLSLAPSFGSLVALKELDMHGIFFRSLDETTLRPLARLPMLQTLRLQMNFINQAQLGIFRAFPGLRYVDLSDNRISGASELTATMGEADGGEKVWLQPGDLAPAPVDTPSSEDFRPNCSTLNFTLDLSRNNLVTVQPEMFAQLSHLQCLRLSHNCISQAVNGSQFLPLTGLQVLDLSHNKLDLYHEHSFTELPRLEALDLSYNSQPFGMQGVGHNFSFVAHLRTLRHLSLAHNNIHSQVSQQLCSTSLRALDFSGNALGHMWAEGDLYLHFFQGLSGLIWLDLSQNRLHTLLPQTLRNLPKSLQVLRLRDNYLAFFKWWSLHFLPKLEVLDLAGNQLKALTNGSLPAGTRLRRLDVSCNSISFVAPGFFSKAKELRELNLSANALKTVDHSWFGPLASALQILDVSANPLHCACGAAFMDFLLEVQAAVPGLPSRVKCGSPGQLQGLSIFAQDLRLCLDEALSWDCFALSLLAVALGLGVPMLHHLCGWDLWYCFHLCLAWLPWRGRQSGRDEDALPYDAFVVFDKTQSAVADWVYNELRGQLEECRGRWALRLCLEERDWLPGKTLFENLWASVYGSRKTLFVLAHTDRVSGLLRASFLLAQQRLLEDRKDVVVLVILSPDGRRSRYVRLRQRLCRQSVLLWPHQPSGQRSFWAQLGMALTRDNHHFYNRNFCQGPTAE
Experiment notes: TLR9 inhibition reporter assay (HEK-Blue cells, SEAP reporter, ODN2006 stimulation)
Particulars: HEK-Blue cells overexpressing human TLR9, SEAP reporter, ODN2006 5 nM
Source text: TLR7/8/9 Inhibition Reporter Assays HEK-Blue™-cells (Invivogen) overexpressing human TLR7, TLR8 or TLR9 receptors were used for screening inhibitors of these receptors using an inducible SEAP (secreted embryonic alkaline phosphatase) reporter gene under the control of the IFN-β minimal promoter fused to five NF-κB and AP-1-binding sites. […]
Reported property: IC50 (µM)

Example entries and their recorded answers appear below.
Field IC50 (entry COc1cc(-c2[nH]nc(-c3nc4c(s3)CN(C)CC4)c2C(C)C)cn2ncnc12 [Example 262] ) reads 18.3

// recorded IC50 for Cc1cc(-c2[nH]nc(C(=O)N[C@H]3CC[C@@H](N(CCC(C)C)CCC(C)C)CC3)c2C(C)C)cn2ncnc12 [Example 91] : 6.72

// IC50 value for Cc1cc(-c2[nH]nc(C(=O)NC3CN(C)C3)c2C(C)C)cn2ncnc12 [Example 156] : 10.9

Short answer for Cc1cc(-c2[nH]nc(C3CCN(C)CC3)c2C(C)C)cn2ncnc12 [Example 206] : IC50 was 12.6

Input COc1ncc(CN[C@H]2CC[C@@H](NC(=O)c3n[nH]c(-c4cc(C)c5ncnn5c4)c3C(C)C)CC2)cn1 [Example 96] . Output IC50: 7.77

Memo: CNC1CCC(c2n[nH]c(-c3cc(C)c4ncnn4c3)c2C(C)C)CC1 (single isomer, unassigned) [Example 294] , reported IC50: 8.99

For reference, reported IC50 for Cc1cc(-c2[nH]nc(C(=O)N[C@H]3CC[C@@H](NCCCC(F)(F)F)CC3)c2C(C)C)cn2ncnc12 [Example 88] stands at 4.45

In plain terms, Cc1cc(-c2[nH]nc(C(=O)N3CC[C@@H](N(C)C)C3)c2C(C)C)cn2ncnc12 [Example 18] has a documented IC50 of 3.74

Lookup result for COc1cc(-c2[nH]nc(C(=O)NC3CCNCC3)c2CC(F)(F)F)cn2ncnc12 [Example 190] ; measured IC50: 8.35

Noted for Cc1cc(-c2[nH]nc(-c3ncc4c(n3)CNC4)c2C(C)C)cn2ncnc12 [Example 216] : its IC50 reads 6.52

P: Cc1cc(-c2[nH]nc(-c3nc4c(s3)CN(C)CC4)c2C(C)C)cn2ncnc12 [Example 256]
Q: COc1cc(-c2[nH]nc(-c3cnc(C4CCN(CC(C)C)CC4)cn3)c2C(C)C)cn2ncnc12 [Example 379]
Which one would you say has the larger IC50 value: P , or Q ? Please identify the chosen entry by its label.
Q
(Q: 28 µM, P: 16.9 µM)

###

Measured target: human TLR9 (Homo sapiens)
Experiment notes: TLR9 inhibition reporter assay (HEK-Blue cells, SEAP reporter, ODN2006 stimulation)
Particulars: HEK-Blue cells overexpressing human TLR9, SEAP reporter, ODN2006 5 nM
Source text: TLR7/8/9 Inhibition Reporter Assays HEK-Blue™-cells (Invivogen) overexpressing human TLR7, TLR8 or TLR9 receptors were used for screening inhibitors of these receptors using an inducible SEAP (secreted embryonic alkaline phosphatase) reporter gene under the control of the IFN-β minimal promoter fused to five NF-κB and AP-1-binding sites. […]
Structures can show the parent of a compound that is named as a salt.
Reported property: IC50 (µM)

Here's what some known entries look like.
Entry CNCCN1CCC(NC(=O)c2n[nH]c(-c3cc(C)c4ncnn4c3)c2C(C)C)CC1 [Example 170] under human TLR9 (Homo sapiens) had IC50 of 1.76

Item: Cc1cc(-c2[nH]nc(C3CCC(N4CCOCC4)CC3)c2C(C)C)cn2ncnc12 (single isomer, unassigned) [Example 291] | System: human TLR9 (Homo sapiens) | IC50: 16.8

Form field, IC50 with human TLR9 (Homo sapiens), item CCCN1CCC(NC(=O)c2n[nH]c(-c3cc(OC)c4ncnn4c3)c2CC(F)(F)F)CC1 [Example 195] : 5.5

a: Cc1cc(-c2[nH]nc(C(=O)N3CCN(CCC#N)CC3)c2C(C)C)cn2ncnc12 [Example 19]
b: Cc1cc(-c2[nH]nc(-c3ncc4c(n3)CCN(C(C)C)C4)c2C(C)C)cn2ncnc12 [Example 250]
c: Cc1cc(-c2[nH]nc(-c3ccc4c(c3)CCNC4)c2C(C)C)cn2ncnc12 [Example 213, HCl]
// ascending sort on recorded IC50 # answer = labels listed in requested order
a, c, b
